experiment: Hemolytic activity against human RBC assessed as hemolysis after 30 mins by colorimetric method; type: ADME, cell-based, Erythrocyte; details: human red blood cells (erythrocytes)
Catalogue of HC50 at 0.5 h values
Numeric answer only, unit µM assumed.

{"Smiles Code": "CC(C)[C@@H]1NC(=O)[C@H](CCCN)NC(=O)[C@H]([C@H](O)C(C)C)NC(=O)C2=CC3=C4CCCC4=C4C=C(S[C@]4(C)[C@@]3(C)S2)C(=O)[C@H]2CCCN2C(=O)[C@H](C(C)C)NC(=O)[C@H](CCCN)NC(=O)[C@H](C(C)C)NC(=O)[C@@H]2CCCN2C(=O)[C@@H](Cc2ccccc2)NC1=O", "Result Unit": "µM", "HC50 at 0.5 h": 351}

Kindly note the recorded HC50 at 0.5 h for CC(C)C[C@@H]1NC(=O)[C@H](CCCN)NC(=O)[C@H](C(C)C)NC(=O)C2=CC3=C4CCCC4=C4C=C(S[C@]4(C)[C@@]3(C)S2)C(=O)[C@H]2CCCN2C(=O)[C@H](C)NC(=O)[C@H](CCCN)NC(=O)[C@H](C(C)C)NC(=O)[C@@H]2CCCN2C(=O)[C@@H](Cc2ccccc2)NC1=O , which is 45

Kindly note the recorded HC50 at 0.5 h for Cc1sc2cc1C1=C(CCC1)c1cc(sc1C)C(=O)[C@H]1CCCN1C(=O)[C@H]([C@@H](C)O)NC(=O)[C@H](C13CC4CC(CC(C4)C1)C3)NC(=O)[C@H](CCCN)NC(=O)[C@@H]1CCCN1C(=O)[C@@H](Cc1ccccc1)NC(=O)[C@H](CCCN)NC(=O)[C@H](C13CC4CC(CC(C4)C1)C3)NC(=O)[C@H](CCCN)NC2=O , which is 4

Kindly note the recorded HC50 at 0.5 h for Cc1sc2cc1C1=C(CCC1)c1cc(sc1C)C(=O)[C@H]1CCCN1C(=O)[C@H](C(C)C)NC(=O)[C@H](CCCCN)NC(=O)[C@H](C(C)C)NC(=O)[C@H](CC(C)C)NC(=O)[C@@H](CCCCN)NC(=O)[C@@H]1CCCN1C(=O)[C@@H](Cc1ccccc1)NC(=O)[C@H](C(C)C)NC(=O)[C@H](CCCCN)NC(=O)[C@H](CC(C)C)NC(=O)[C@H](CCCCN)NC(=O)[C@H](C(C)C)NC2=O , which is 1

Kindly note the recorded HC50 at 0.5 h for CC[C@H](C)[C@@H]1NC(=O)C2=CC3=C4CCCC4=C4C=C(S[C@]4(C)[C@@]3(C)S2)C(=O)[C@H]2CCCN2C(=O)[C@H](CC(C)C)NC(=O)[C@H](CCCN)NC(=O)[C@H]([C@@H](C)CC)NC(=O)[C@@H]2CCCN2C(=O)[C@H]2CCCN2C(=O)[C@H](CC(C)C)NC(=O)[C@H](CCCN)NC1=O , which is 120

Kindly note the recorded HC50 at 0.5 h for Cc1sc2cc1C1=C(CCC1)c1cc(sc1C)C(=O)[C@H]1CCCN1C(=O)[C@H](CCCCN)NC(=O)[C@H](CC(C)C)NC(=O)[C@H](CCCCN)NC(=O)[C@H](C(C)C)NC(=O)[C@@H]1CCCN1C(=O)[C@@H](Cc1ccccc1)NC(=O)[C@H](CC(C)C)NC(=O)[C@H](CCCCN)NC(=O)[C@H](C(C)C)NC(=O)[C@H](CCCCN)NC2=O , which is 4

Kindly note the recorded HC50 at 0.5 h for CC(C)C(=O)NCC[C@@H]1NC(=O)C2=CC3=C4CCCC4=C4C=C(S[C@]4(C)[C@@]3(C)S2)C(=O)[C@H]2CCCN2C(=O)[C@H](C(C)C)NC(=O)[C@H](CCCN)NC(=O)[C@H](C(C)C)NC(=O)[C@@H]2CCCN2C(=O)[C@@H](Cc2ccccc2)NC(=O)[C@H](C(C)C)NC(=O)[C@H](CCCN)NC1=O , which is 387

Kindly note the recorded HC50 at 0.5 h for CC[C@H](C)[C@@H]1NC(=O)c2cc(c(C)s2)C2=C(CCC2)c2cc(sc2C)C(=O)[C@H]2CCCN2C(=O)[C@H](CC(C)C)NC(=O)[C@H](CCCN)NC(=O)[C@H]([C@@H](C)CC)NC(=O)[C@@H]2CCCN2C(=O)[C@H]2CCCN2C(=O)[C@H](CC(C)C)NC(=O)[C@H](CCCN)NC1=O , which is 8

Kindly note the recorded HC50 at 0.5 h for CC(C)[C@@H]1NC(=O)C2=CC3=C4CCCC4=C4C=C(S[C@]4(C)[C@@]3(C)S2)C(=O)[C@H]2CCCN2C(=O)[C@H]([C@@H](C)O)NC(=O)[C@H](CCCN)NC(=O)[C@H](C(C)C)NC(=O)[C@@H]2CCCN2C(=O)[C@@H](Cc2ccccc2)NC(=O)[C@H](C(C)C)NC(=O)[C@H](CCCN)NC1=O , which is 408

Kindly note the recorded HC50 at 0.5 h for CC(C)C[C@@H]1NC(=O)[C@H](CCCCN)NC(=O)[C@H](C(C)C)NC(=O)C2=CC3=C4CCCC4=C4C=C(S[C@]4(C)[C@@]3(C)S2)C(=O)[C@H]2CCCN2C(=O)[C@H](CC(C)C)NC(=O)[C@H](CCCCN)NC(=O)[C@H](C(C)C)NC(=O)[C@H](CCCCN)N(C)C(=O)[C@@H](Cc2ccccc2)NC1=O , which is 22

Kindly note the recorded HC50 at 0.5 h for CC(C)[C@@H]1NC(=O)C2=CC3=C4CCCC4=C4C=C(S[C@]4(C)[C@@]3(C)S2)C(=O)[C@H]2CCCN2C(=O)[C@H](C(C)C)NC(=O)[C@H](CCCN)N(C)C(=O)[C@H](C(C)C)NC(=O)[C@@H]2CCCN2C(=O)[C@@H](Cc2ccccc2)N(C)C(=O)[C@H](C(C)C)NC(=O)[C@H](CCCN)NC1=O , which is 192

====

system: HeLa; test: Cytotoxicity against human HeLa cells assessed as reduction in cell viability after 24 hrs by MTT assay; type: functional, cell-based
Non-standard residues stand in square brackets, D forms with d. Residues, ends and D or L forms follow the SMILES beside them. Orn = NCCC[C@H](N)C(=O)O
Measure Name: log10 IC50 (log10 of the value in µM)
The common logarithm of IC50 in µM is what is listed.

Examples from the recorded data:
{"Molecule": "C[C@@H](O)[C@@H]1NC(=O)[C@H](C23CC4CC(CC(C4)C2)C3)NC(=O)[C@H](CCCN)NC(=O)[C@@H]2CCCN2C(=O)[C@@H](Cc2ccccc2)NC(=O)[C@H](CCCN)NC(=O)[C@H](C23CC4CC(CC(C4)C2)C3)NC(=O)[C@H](CCCN)NC(=O)C2=CC3=C4CCCC4=C4C=C(S[C@]4(C)[C@@]3(C)S2)C(=O)[C@H]2CCCN2C1=O", "log10 IC50": 1.04}
{"Molecule": "CC(C)[C@@H]1NC(=O)[C@H](CCCN)NC(=O)[C@H]([C@H](O)C(C)C)NC(=O)C2=CC3=C4CCCC4=C4C=C(S[C@]4(C)[C@@]3(C)S2)C(=O)[C@H]2CCCN2C(=O)[C@H](C(C)C)NC(=O)[C@H](CCCN)NC(=O)[C@H](C(C)C)NC(=O)[C@@H]2CCCN2C(=O)[C@@H](Cc2ccccc2)NC1=O", "log10 IC50": 2.48}
{"Molecule": "Cc1sc2cc1C1=C(CCC1)c1cc(sc1C)C(=O)[C@H]1CCCN1C(=O)[C@H](C)NC(=O)[C@H](CCCN)NC(=O)[C@H](C(C)C)NC(=O)[C@@H]1CCCN1C(=O)[C@@H](Cc1ccccc1)NC(=O)[C@H](CC(C)C)NC(=O)[C@H](CCCN)NC(=O)[C@H](C)NC2=O", "log10 IC50": 1.60}
{"Molecule": "CCCCN1C(=O)[C@@H](Cc2ccccc2)NC(=O)[C@H](CC(C)C)NC(=O)[C@H](CCCN)NC(=O)[C@H]([C@@H](C)CC)NC(=O)c2cc(c(C)s2)C2=C(CCC2)c2cc(sc2C)C(=O)[C@H]2CCCN2C(=O)[C@H](CC(C)C)NC(=O)[C@H](CCCN)NC(=O)[C@H]([C@@H](C)CC)NC(=O)[C@@H]1CC(C)C", "log10 IC50": 0.60}
{"Molecule": "CC(C)[C@@H]1NC(=O)C2=CC3=C4CCCC4=C4C=C(S[C@]4(C)[C@@]3(C)S2)C(=O)[C@H]2CCCN2C(=O)[C@H](C(C)C)NC(=O)[C@H](CCCN)N(C)C(=O)[C@H](C(C)C)NC(=O)[C@@H]2CCCN2C(=O)[C@@H](Cc2ccccc2)N(C)C(=O)[C@H](C(C)C)NC(=O)[C@H](CCCN)NC1=O", "log10 IC50": 2.00}

Entry CC(C)[C@@H]1NC(=O)[C@H](CCCN)NC(=O)[C@H]([C@H](O)C(C)C)NC(=O)C2=CC3=C4CCCC4=C4C=C(S[C@]4(C)[C@@]3(C)S2)C(=O)[C@H]2CCCN2C(=O)[C@H](C(C)C)NC(=O)[C@H](CCCN)NC(=O)[C@H]([C@H](O)C(C)C)NC(=O)[C@@H]2CCCN2C(=O)[C@@H](Cc2ccccc2)NC1=O under HeLa had log10 IC50 of 2.47

Entry Cc1sc2cc1C1=C(CCC1)c1cc(sc1C)C(=O)[C@H]1CCCN1C(=O)[C@H](CC(C)C)NC(=O)[C@H](CCCCN)NC(=O)[C@H](C(C)C)NC(=O)[C@H](CCCCN)NC(=O)[C@H](CC(C)C)NC(=O)[C@H](CCCCN)N(C)C(=O)[C@@H](Cc1ccccc1)NC(=O)[C@H](C(C)C)NC(=O)[C@H](CCCCN)NC(=O)[C@H](CC(C)C)NC(=O)[C@H](CCCCN)NC(=O)[C@H](C(C)C)NC2=O under HeLa had log10 IC50 of 0.30

Entry Cc1sc2cc1C1=C(CCC1)c1cc(sc1C)C(=O)[C@H]1CCCN1C(=O)[C@H](C(C)C)NC(=O)[C@H](CCCN)NC(=O)[C@H]([C@H](O)C(C)C)NC(=O)[C@@H]1CCCN1C(=O)[C@@H](Cc1ccccc1)NC(=O)[C@H](C(C)C)NC(=O)[C@H](CCCN)NC(=O)[C@H]([C@H](O)C(C)C)NC2=O under HeLa had log10 IC50 of 1.79

Entry CC(C)[C@@H]1NC(=O)C2=CC3=C4CCCC4=C4C=C(S[C@]4(C)[C@@]3(C)S2)C(=O)[C@H]2CCCN2C(=O)[C@H](C(C)C)NC(=O)[C@H](CCCN)NC(=O)[C@H]([C@H](O)C(C)C)NC(=O)[C@@H]2CCCN2C(=O)[C@@H](Cc2ccccc2)NC(=O)[C@H](C(C)C)NC(=O)[C@H](CCCN)NC1=O under HeLa had log10 IC50 of 2.18

Entry CC(C)C[C@@H]1NC(=O)[C@H](CCCN)NC(=O)[C@H](C(C)C)NC(=O)[C@@H]2CCCN2C(=O)[C@@H](Cc2ccccc2)NC(=O)[C@H](CC(C)C)NC(=O)[C@H](CCCN)NC(=O)[C@H](C(C)C)NC(=O)[C@@H]2CCCN2C(=O)[C@@H](Cc2ccccc2)NC1=O (cyclo(V[Orn]L[dF]PV[Orn]L[dF]P)) under HeLa had log10 IC50 of 0.54

Entry Cc1sc2cc1C1=C(CCC1)c1cc(sc1C)C(=O)[C@H]1CCCN1C(=O)[C@H](CC(C)C)NC(=O)[C@H](CCCNC(=N)N)NC(=O)[C@H](C(C)C)NC(=O)[C@@H]1CCCN1C(=O)[C@@H](Cc1ccccc1)NC(=O)[C@H](CC(C)C)NC(=O)[C@H](CCCNC(=N)N)NC(=O)[C@H](C(C)C)NC2=O under HeLa had log10 IC50 of 0.60

Entry Cc1sc2cc1C1=C(CCC1)c1cc(sc1C)C(=O)[C@H]1CCCN1C(=O)[C@H](C(C)C)NC(=O)[C@H](CCCN)N(C)C(=O)[C@H](C(C)C)NC(=O)[C@@H]1CCCN1C(=O)[C@@H](Cc1ccccc1)N(C)C(=O)[C@H](C(C)C)NC(=O)[C@H](CCCN)NC(=O)[C@H](C(C)C)NC2=O under HeLa had log10 IC50 of 1.40

Entry Cc1sc2cc1C1=C(CCC1)c1cc(sc1C)C(=O)[C@H]1CCCN1C(=O)[C@H](CC(C)C)NC(=O)[C@H](CCCCN)NC(=O)[C@H](C(C)C)NC(=O)[C@H](CCCCN)NC(=O)[C@H](CC(C)C)NC(=O)[C@@H]1CCCN1C(=O)[C@@H](Cc1ccccc1)NC(=O)[C@H](C(C)C)NC(=O)[C@H](CCCCN)NC(=O)[C@H](CC(C)C)NC(=O)[C@H](CCCCN)NC(=O)[C@H](C(C)C)NC2=O under HeLa had log10 IC50 of 0.70
